System: MIA PaCa-2 cells expressing KRAS^G12C/Y96D
Test: Cell viability assay (CellTiter-Glo, 72 hours)
Type: cell-based
Conditions: Homo sapiens, MIA PaCa-2
quantity: pIC50
In simple prose, pIC50 is minus the logarithm base ten of a concentration in moles per litre.

## Input Supply reported pIC50 belonging to this compound: C=CC(=O)N1CCN(c2ncnc3c(F)c(-c4c(O)cccc4F)c(Cl)cc23)CC1 [ARS-1620, reference compound]
## Output 5.03

----------
Tested on: Ba/F3 cells expressing KRAS^G12C/Y96D
Test: Cell viability assay (CellTiter-Glo, 72 hours)
Format: cell-based
Conditions: Mus musculus, BaF3
quantity: IC50 (nM)
# number only, unit nM dropped from output

## Input Given C=CC(=O)N1CCN(c2ncnc3c(F)c(-c4c(O)cccc4F)c(Cl)cc23)CC1 [ARS-1620, reference compound] , respond with its IC50.
## Output 3000
